Reported growth inhibition values follow for various molecules
Test: inhibition of 3D7 malaria parasite growth – strain 3D7 (AID 2306);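 note: 0% = DMSO wells and 100% = chloroquine plus artemisinin control wells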
Conditions: P. falciparum 3D7 erythrocytic growth, LDH absorbance, 72 h; at 2 µM; hits give high values
parameter_measured: growth inhibition (%)

>>> recorded_result("Cc1cccc(CN2CCC(C(=O)Nc3ccc(-c4nc5ccccc5[nH]4)cc3)CC2)n1")
96
>>> recorded_result("CCC(C)CN1C(=O)C(c2ccccc2)(c2ccccc2)N=C1N (stereo not given)")
98
>>> recorded_result("CN(C)Cc1c(O)ccc2oc(Cc3ccccc3)cc12")
99
>>> recorded_result("Cc1nc(C)c(-c2ccc(Oc3ccc(OC(F)(F)F)cc3)cc2)c(OC(=O)c2ccccc2)c1Cl")
97
>>> recorded_result("COc1cccc(-c2nc(Nc3ccncc3)c3ncn(C)c3n2)c1")
94
>>> recorded_result("N=C(N)c1ccc(Nc2nccc(Nc3nc(-c4ccccc4)cs3)n2)cc1")
96
>>> recorded_result("COc1cccc(C(=O)NCCOc2ccccc2)c1Oc1ccccc1")
98
>>> recorded_result("CCN1CCN(c2ccc(Nc3c4ccccc4nc4ccccc34)cc2)CC1")
99
>>> recorded_result("O=C(NCCc1ccccc1)N(Cc1ccccc1-c1cccc(CNCc2ccc3c(c2)OCO3)c1)C1CCN(Cc2ccccc2)CC1")
93
>>> recorded_result("NC1=NC2(CCCCC2)N(OCCCCCCc2ccccc2)C(N)=N1")
100

###

Assay: survival rescue of mitochondrial mutant cells in low glucose, primary screen, MELAS cybrids, Rieske KO mouse fibroblasts, CellTiter-Glo (AID 1508586);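 note: z relative to plate mean and SD of compound and empty wells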
Conditions: MELAS cybrid survival, CellTiter-Glo 48 h, hits give high values
Met means recorded z-score is -0.3 or above; Not met means it is below -0.3.

>>> classification("O=S(=O)(c1ccccc1)N(CC(F)(F)F)c1ccc(C(O)(C(F)(F)F)C(F)(F)F)cc1")
"Not met"
>>> classification("Fc1ccc(C2CCNCC2COc2ccc3c(c2)OCO3)cc1 (stereo not drawn)")
"Not met"
>>> classification("NC(=O)c1ncn(C2OC(CO)C(O)C2O)n1 (stereo not drawn)")
"Not met"
>>> classification("N#Cc1c(O)c2c(-c3ccc(-c4ccccc4O)cc3)csc2[nH]c1=O")
"Met"
>>> classification("CC(C)N(CCC(=O)c1ccc2ccccc2c1)Cc1ccccc1")
"Not met"
>>> classification("Cc1c(C(=O)NN2CCCCC2)nn(-c2ccc(Cl)cc2Cl)c1-c1ccc(I)cc1")
"Not met"
>>> classification("CN(C(=O)CCCOc1ccc2[nH]c(=O)ccc2c1)C1CCCCC1")
"Met"
>>> classification("CC(C)CC(N)=O")
"Met"
>>> classification("Cc1cccc(C#Cc2ccccc2)n1")
"Met"
>>> classification("Cc1ccc(C(=O)Cn2c3c(sc2=N)CCCC3)cc1")
"Met"
>>> classification("O=Nc1c(-c2c(O)[nH]c3cc(Br)ccc23)[nH]c2ccccc12")
"Met"
>>> classification("CC1(C)S[C@@H]2[C@H](NC(=O)COc3ccccc3)C(=O)N2[C@H]1C(=O)O")
"Met"
>>> classification("c1ccc(C2CN3CCSC3=N2)cc1 (stereo not drawn)")
"Met"
>>> classification("N[C@H]1CONC1=O")
"Not met"
>>> classification("NS(=O)(=O)C#Cc1ccccc1")
"Not met"
>>> classification("CCC(=C(c1ccccc1)c1ccc(OCCN(C)C)cc1)c1ccccc1")
"Met"
>>> classification("CS(=O)c1ccc(-c2nc(-c3ccc(F)cc3)c(-c3ccncc3)[nH]2)cc1 (stereo not drawn)")
"Not met"
>>> classification("N=C(N)c1ccc(N=NNc2ccc(C(=N)N)cc2)cc1 (tested in a mixture with another compound)")
"Met"
>>> classification("Nc1ccn(C2CSC(CO)O2)c(=O)n1 (stereo not drawn)")
"Met"
>>> classification("CC1=C(/C=C/C(C)=C/C=C/C(C)=C/C=C/C=C(C)/C=C/C=C(C)/C=C/C2=C(C)C(=O)CCC2(C)C)C(C)(C)CCC1=O")
"Met"
>>> classification("COc1cccc(-c2cc(=O)c3ccccc3o2)c1N")
"Not met"
>>> classification("CC(=O)c1ccc(S(=O)(=O)NC(=O)NC2CCCCC2)cc1")
"Met"
